ASSAY METHOD TEXT: MTD of GEM intravenous infusion regime in human cancer patients (Fossella et al.)
Format: in vivo
CONDITION DETAILS: human, in vivo, converted from 2,400 mg/m^2, read-out: MTD (corresponding dose per body weight)
MEASURE: MTD (mg/kg)

| STRUCTURE | MEASURE | RECORDED NUMBER |
| --- | --- | --- |
| Nc1ccn([C@@H]2O[C@H](CO)[C@@H](O)C2(F)F)c(=O)n1 | MTD | 65 |
